Each entry below carries its recorded EC50.
System: HPV11
procedure text: microbe, parasite or virus in culture
settings: human papillomavirus 11, C-33-A
Use nM as the unit, but write only the number.

{"compound": "Nc1nc2c(ncn2CCOCP(=O)(O)O)c(=O)[nH]1 [9-[2-(phosphonomethoxy)ethyl]guanine]", "measurement unit": "nM", "EC50": 1030}

Shifting focus to the compound that follows.
Summary for this compound, "O=[N+]([O-])c1ccc(O)c2ncccc12" : EC50 is 1040

====

Tested on: HPV16
procedure text: microbe, parasite or virus in culture
settings: Human papillomavirus 16, C-33-A, HPV16 strain KP212151.1, C-33 A, concentration range 0.001-250 μM
recorded metric: EC50 (nM)
Use nM as the unit, but write only the number.

Summary for this compound, Nc1nc2c(ncn2CCOCP(=O)(O)O)c(=O)[nH]1 [9-[2-(phosphonomethoxy)ethyl]guanine] : EC50 is 280
